Target: T1, human GIP receptor (human, UniProt P48546 22-466)
T1 sequence (looked up): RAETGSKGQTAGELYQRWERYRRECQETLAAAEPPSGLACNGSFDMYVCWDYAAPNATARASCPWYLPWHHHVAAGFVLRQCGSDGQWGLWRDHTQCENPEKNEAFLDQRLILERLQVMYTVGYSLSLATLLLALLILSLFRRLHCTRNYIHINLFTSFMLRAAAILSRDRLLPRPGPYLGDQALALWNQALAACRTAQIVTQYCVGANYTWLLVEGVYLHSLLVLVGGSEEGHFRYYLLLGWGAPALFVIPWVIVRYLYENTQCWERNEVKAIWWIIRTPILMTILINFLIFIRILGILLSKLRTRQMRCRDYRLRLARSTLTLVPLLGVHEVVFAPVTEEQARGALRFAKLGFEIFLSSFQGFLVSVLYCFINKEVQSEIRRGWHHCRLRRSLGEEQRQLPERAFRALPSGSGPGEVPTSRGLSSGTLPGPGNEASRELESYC
Assay: cell-based or functional assay
Consider the following binders; for each one, report its cAMP Emax (1.0% HSA).
Answers are plain numbers, in %.

Q: What value of cAMP Emax (1.0% HSA) has been reported for the following binder? YXEGTXTSDXXIXLDXQAQXKFIXXLIEGGPSSGAPPPSK (Y-Aib-EGT-αMeF(2F)-TSD-4Pal-Aib-I-αMeL-LD-Orn-QAQ-Aib-K((2-[2-(2-Amino-ethoxy)-ethoxy]-acetyl)2-(γ-Glu)-CO-(CH2)12-CO2H)FI-(D-Glu)-αMeY-LIEGGPSSGAPPPSK((2-[2-(2-Amino-ethoxy)-ethoxy]-acetyl)2-(γ-Glu)-CO-(CH2)12-CO2H)-NH2) [Example 489]
Result: 79.4

Q: What value of cAMP Emax (1.0% HSA) has been reported for the following binder? YXEGTXTSDYXIXLDXQAQXEFIKXLIKGGPSSGAPPPS (Y-Aib-EGT-αMeF(2F)-TSDY-Aib-I-αMeL-LD-Orn-QAQ-Aib-EFIK((2-[2-(2-Amino-ethoxy)-ethoxy]-acetyl)2-(γ-Glu)-(10-(4-carboxyphenoxy)decanoyl))-αMeY-LIK((2-[2-(2-Amino-ethoxy)-ethoxy]-acetyl)2-(γ-Glu)-(10-(4-carboxyphenoxy)decanoyl))GGPSSGAPPPS-NH2) [Example 402]
Result: 84.5

Q: What value of cAMP Emax (1.0% HSA) has been reported for the following binder? YXEGTXTSDXXIXLDXKAQXEXIXXLIEGGPSSGAPPPSK (not fully specified; Y-Aib-EGT-αMeF(2F)-TSD-4Pal-Aib-I-αMeL-LD-Orn-K((2-[2-(2-Amino-ethoxy)-ethoxy]-acetyl)2-(γ Glu)-CO-(CH2)10C3)AQ-Aib-E-αMeF-I-(D-Glu)-αMeY-LIEGGPSSGAPPPSK((2-[2-(2-Amino-ethoxy)-ethoxy]-acetyl)2-(γ-Glu)-CO-(CH2)10-CH3)-NH2) [Example 431]
Result: 98

Q: What value of cAMP Emax (1.0% HSA) has been reported for the following binder? YXEGTXTSDXSIXLDXQAQXXFIKXLIKGGPSSGAPPPS (Y-Aib-EGT-αMeF(2F)-TSD-hY-SI-αMeL-LD-Orn-QAQ-Aib-Orn-FIK((2-[2-(2-Amino-ethoxy)-ethoxy]-acetyl)2-(γ-Glu)-CO-(CH2)12-CO2H)-αMeY-LIK((2-[2-(2-Amino-ethoxy)-ethoxy]-acetyl)2-(γ-Glu)-CO-(CH2)12-CO2H)GGPSSGAPPPS-NH2) [Example 491]
Result: 87.5

Q: What value of cAMP Emax (1.0% HSA) has been reported for the following binder? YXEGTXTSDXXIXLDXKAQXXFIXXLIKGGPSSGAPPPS (Y-Aib-EGT-αMeF(2F)-TSD-4Pal-Aib-I-αMeL-LD-Orn-K((2-[2-(2-Amino-ethoxy)-ethoxy]-acetyl)3-(γ-Glu)-CO-(CH2)10-CH3)AQ-Aib-Orn-FI-(D-Glu)-αMeY-LIK((2-[2-(2-Amino-ethoxy)-ethoxy]-acetyl)3-(γ-Glu)-CO-(CH2)10-CH3)GGPSSGAPPPS-NH2) [Example 434]
Result: 97.5

Go through the items and report each one's cAMP Emax (1.0% HSA).
1. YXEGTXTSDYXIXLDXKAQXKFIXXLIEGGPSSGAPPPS (Y-Aib-EGT-αMeF(2F)-TSDY-Aib-I-αMeL-LD-Orn-K((2-[2-(2-Amino-ethoxy)-ethoxy]-acetyl)2-CO-(CH2)12-CO2H)AQ-Aib-K((2-[2-(2-Amino-ethoxy)-ethoxy]-acetyl)2-CO-(CH2)12-CO2H)FI-(D-Glu)-αMeY-LIEGGPSSGAPPPS-NH2) [Example 385]
2. YXEGTXTSDKXIXLDXKAQXEFIXXLIEGGPSSGAPPPS (Y-Aib-EGT-αMeF(2F)-TSDK((2-[2-(2-Amino-ethoxy)-ethoxy]-acetyl)3-(γ-Glu)-CO-(CH2)10-CH3)-Aib-I-αMeL-LD-Orn-K((2-[2-(2-Amino-ethoxy)-ethoxy]-acetyl)3-(γ-Glu)-CO-(CH2)10-CH3)AQ-Aib-EFI-(D-Glu)-αMeY-LIEGGPSSGAPPPS-NH2) [Example 421]
3. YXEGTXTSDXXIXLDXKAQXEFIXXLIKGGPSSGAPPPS (Y-Aib-EGT-αMeF(2F)-TSD-4Pal-Aib-I-αMeL-LD-Orn-K((2-[2-(2-Amino-ethoxy)-ethoxy]-acetyl)2-(10-(4-carboxyphenoxy)decanoyl))AQ-Aib-EFI-(D-Glu)-αMeY-LIK((2-[2-(2-Amino-ethoxy)-ethoxy]-acetyl)2-(10-(4-carboxyphenoxy)decanoyl))GGPSSGAPPPS-NH2) [Example 395]
4. YXEGTXTSDXXIXLDXQAQXEFIKXLIKGGPSSGAPPPS (Y-Aib-EGT-αMeF(2F)-TSD-4Pal-Aib-I-αMeL-LD-Orn-QAQ-Aib-EFIK((2-[2-(2-Amino-ethoxy)-ethoxy]-acetyl)2-(γ-Glu)-(10-(4-carboxyphenoxy)decanoyl))-αMeY-LIK((2-[2-(2-Amino-ethoxy)-ethoxy]-acetyl)2-(γ-Glu)-(10-(4-carboxyphenoxy)decanoyl))GGPSSGAPPPS-NH2) [Example 403]
5. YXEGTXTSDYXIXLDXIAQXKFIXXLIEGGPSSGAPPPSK (Y-Aib-EGT-αMeF(2F)-TSDY-Aib-I-αMeL-LD-Orn-IAQ-Aib-K((2-[2-(2-Amino-ethoxy)-ethoxy]-acetyl)-(γ-Glu)-(10-(4-carboxyphenoxy)decanoyl))FI-(D-Glu)-αMeY-LIEGGPSSGAPPPSK((2-[2-(2-Amino-ethoxy)-ethoxy]-acetyl)-(γ-Glu)-(10-(4-carboxyphenoxy)decanoyl))-NH2) [Example 377]

Result:
1. 83.5
2. 98
3. 57.8
4. 91.7
5. 79.4

Go through the items and report each one's cAMP Emax (1.0% HSA).
1. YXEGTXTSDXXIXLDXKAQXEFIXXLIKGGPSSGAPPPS (Y-Aib-EGT-αMeF(2F)-TSD-4Pal-Aib-I-αMeL-LD-Orn-K((2-[2-(2-Amino-ethoxy)-ethoxy]-acetyl)-Aoc-CO-(CH2)12-CO2H)AQ-Aib-EFI-(D-Glu)-αMeY-LIK(((2-[2-(2-Amino-ethoxy)-ethoxy]-acetyl)-Aoc-CO-(CH2)12-CO2H)GGPSSGAPPPS-NH2)) [Example 465]
2. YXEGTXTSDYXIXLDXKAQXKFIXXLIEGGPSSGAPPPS (Y-Aib-EGT-αMeF(2F)-TSDY-Aib-I-αMeL-LD-Orn-K((2-[2-(2-Amino-ethoxy)-ethoxy]-acetyl)-(γ-Glu)-CO-(CH2)12-CO2H)AQ-Aib-K((2-[2-(2-Amino-ethoxy)-ethoxy]-acetyl)-(γ-Glu)-CO-(CH2)12-CO2H)FI-(D-Glu)-αMeY-LIEGGPSSGAPPPS-NH2) [Example 366]
3. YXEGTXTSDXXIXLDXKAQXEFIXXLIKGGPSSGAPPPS (Y-Aib-EGT-αMeF(2F)-TSD-4Pal-Aib-I-αMeL-LD-Orn-K((2-[2-(2-Amino-ethoxy)-ethoxy]-acetyl)2-CO-(CH2)12-CO2H)AQ-Aib-EFI-(D-Glu)-αMeY-LIK((2-[2-(2-Amino-ethoxy)-ethoxy]-acetyl)2-CO-(CH2)12-CO2H)GGPSSGAPPPS-NH2) [Example 387]

Result:
[94.4, 95.9, 93]
